system: RDEB dermal fibroblasts EB71; test: day of extracellular matrix detachment from plate (days); higher = delayed detachment (less fibrotic matrix); details: compound concentration: 10 uM
Counter-ions that a name gives are not always drawn. Over roughly 1,100 compounds, “day of extracellular matrix detachment from plate” has its median near 16; the lowest 2% begin near 10. The entries come from a sample that favours the lowest values as a whole.
Reported metric: day of extracellular matrix detachment from plate

Look over these answered cases.
Task item: Consider the compound shown here: O=C1CC[C@@]2(O)[C@H]3Cc4ccc(O)c5c4[C@@]2(CCN3CC2CC2)[C@H]1O5 [Naltrexone HCl] What is its recorded day of extracellular matrix detachment from plate?
Reply: 10

Task item: Consider the compound shown here: Cc1cccc(Cc2c[nH]cn2)c1C [Detomidine HCl] What is its recorded day of extracellular matrix detachment from plate?
Reply: 14.7

Task item: Consider the compound shown here: Cc1cccc([C@H](C)c2c[nH]cn2)c1C [Dexmedetomidine HCl (Precedex)] What is its recorded day of extracellular matrix detachment from plate?
Reply: 10

Task item: Consider the compound shown here: Cc1ccc(-c2nc3ccc(C)cn3c2CC(=O)N(C)C)cc1 What is its recorded day of extracellular matrix detachment from plate?
Reply: 17.7

Task item: Consider the compound shown here: O=C(O[C@H]1C[N+]2(CCCOc3ccccc3)CCC1CC2)C(O)(c1cccs1)c1cccs1 [Aclidinium Bromide] What is its recorded day of extracellular matrix detachment from plate?
Reply: 16.7

Continue with the compound presented below.
Task item: Consider the compound shown here: N[C@@H]1C[C@H]1c1ccccc1 [Tranylcypromine (2-PCPA) HCl] What is its recorded day of extracellular matrix detachment from plate?
Reply: 13
